Each recorded value in this set is attributed to patent US12435108B2.

System: VRE (ATCC700221)
Assay Context: ATCC700221
This listing pairs compounds with measured In vitro antibacterial activity MIC, VRE(ATCC700221).
Quantity Kind: In vitro antibacterial activity MIC, VRE(ATCC700221) (µg/mL)

>  <Compound>
CC[C@H](C)[C@H](NC(=O)[C@@H](Cc1ccc2ccccc2c1)NC)C(=O)N[C@@H](CO)C(=O)N[C@H](CCC(N)=O)C(=O)N[C@@H](C(=O)N[C@H](C(=O)N[C@@H](CO)C(=O)N[C@H]1C(=O)N[C@@H](C)C(=O)NC2(CCCCCC2)C(=O)N[C@@H]([C@@H](C)CC)C(=O)O[C@H]1C)[C@@H](C)CC)[C@@H](C)CC.O=C(O)C(F)(F)F [Example 24]

>  <Reported Result>
4

$$$$
>  <Compound>
CC[C@H](C)[C@H](NC(=O)[C@@H](Cc1ccc2ccccc2c1)NC)C(=O)N[C@@H](CO)C(=O)N[C@H](CCC(N)=O)C(=O)N[C@@H](C(=O)N[C@H](C(=O)N[C@@H](CO)C(=O)N[C@H]1C(=O)N[C@@H](C)C(=O)NC2(CC2)C(=O)N[C@@H]([C@@H](C)CC)C(=O)O[C@H]1C)[C@@H](C)CC)[C@@H](C)CC.O=C(O)C(F)(F)F [Example 23]

>  <Reported Result>
4

$$$$
>  <Compound>
CC[C@H](C)[C@H](NC(=O)[C@@H](Cc1ccc(-c2ccc(-c3ccccc3)cc2)cc1)NC)C(=O)N[C@@H](CO)C(=O)N[C@H](CCC(N)=O)C(=O)N[C@@H](C(=O)N[C@H](C(=O)N[C@@H](CO)C(=O)N[C@H]1C(=O)N[C@@H](C)C(=O)NC2(CC2)C(=O)N[C@@H]([C@@H](C)CC)C(=O)O[C@H]1C)[C@@H](C)CC)[C@@H](C)CC.O=C(O)C(F)(F)F [Example 21]

>  <Reported Result>
8

$$$$
>  <Compound>
CC[C@H](C)[C@H](NC(=O)[C@@H](Cc1ccc(-c2ccccc2)cc1)NC)C(=O)N[C@@H](CO)C(=O)N[C@H](CCC(N)=O)C(=O)N[C@@H](C(=O)N[C@H](C(=O)N[C@@H](CO)C(=O)N[C@H]1C(=O)N[C@@H](C)C(=O)NC2(CC2)C(=O)N[C@@H]([C@@H](C)CC)C(=O)O[C@H]1C)[C@@H](C)CC)[C@@H](C)CC.O=C(O)C(F)(F)F [Example 18]

>  <Reported Result>
2

$$$$
>  <Compound>
CC[C@H](C)[C@H](NC(=O)[C@@H](Cc1csc2ccccc12)NC)C(=O)N[C@@H](CO)C(=O)N[C@H](CCC(N)=O)C(=O)N[C@@H](C(=O)N[C@H](C(=O)N[C@@H](CO)C(=O)N[C@H]1C(=O)N[C@@H](C)C(=O)NC2(CC2)C(=O)N[C@@H]([C@@H](C)CC)C(=O)O[C@H]1C)[C@@H](C)CC)[C@@H](C)CC.O=C(O)C(F)(F)F [Example 15]

>  <Reported Result>
8

$$$$
>  <Compound>
C=C[C@H]1C[C@]12NC(=O)[C@H](C)NC(=O)[C@H](NC(=O)[C@H](CO)NC(=O)[C@@H](NC(=O)[C@H](NC(=O)[C@@H](CCC(N)=O)NC(=O)[C@H](CO)NC(=O)[C@@H](NC(=O)[C@@H](Cc1csc3ccccc13)NC)[C@@H](C)CC)[C@@H](C)CC)[C@@H](C)CC)[C@H](C)OC(=O)[C@H]([C@@H](C)CC)NC2=O.O=C(O)C(F)(F)F [Example 16]

>  <Reported Result>
4

$$$$
